Origin of the recorded values: patent US8614324B2

Molecular target: mu opiate receptor (MOR) (Rattus norvegicus, UniProt P33535)
Construct: from tissue; host or cells: striatal membrane preparation (rat striatum)
Sequence (P33535 whole entry): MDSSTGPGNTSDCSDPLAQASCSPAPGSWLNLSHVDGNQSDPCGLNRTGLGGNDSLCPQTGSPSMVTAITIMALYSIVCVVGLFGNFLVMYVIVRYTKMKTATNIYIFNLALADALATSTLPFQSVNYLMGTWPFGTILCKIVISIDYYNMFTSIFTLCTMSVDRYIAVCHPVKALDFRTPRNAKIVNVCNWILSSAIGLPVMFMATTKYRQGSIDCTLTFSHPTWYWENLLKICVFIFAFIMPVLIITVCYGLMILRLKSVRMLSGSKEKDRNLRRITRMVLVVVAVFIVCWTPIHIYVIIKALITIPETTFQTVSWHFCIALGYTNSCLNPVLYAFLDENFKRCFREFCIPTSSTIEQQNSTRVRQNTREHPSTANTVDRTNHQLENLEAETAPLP
Assay: MOR agonist activity, [35S]GTPγS binding assay using striatal membranes
Type: biochemical
Set-up: reference not given here
Settings: 1 μM compound, striatal membranes
Property name: MOR agonist activity, [35S]GTPγS binding to Gαo (%)
Give bare numbers, in %.

Solved cases (5 shown):
{"columns": ["Compound", "Target or system", "Unit text", "Assay result"],
 "data": [
  ["COc1ccc(S(=O)(=O)N2CCOC23CCN(C(=O)OC(C)(C)C)CC3)cc1", "mu opiate receptor (MOR) (Rattus norvegicus, UniProt P33535)", "%", 242.6],
  ["CCCCN1CCC2(CC1)OCCN2S(=O)(=O)c1ccc(C(C)=O)cc1 [Compound C0101M]", "mu opiate receptor (MOR) (Rattus norvegicus, UniProt P33535)", "%", 274.3],
  ["CC(=O)c1ccc(S(=O)(=O)N2CC(=O)NC23CCNCC3)cc1 [Compound C0086M]", "mu opiate receptor (MOR) (Rattus norvegicus, UniProt P33535)", "%", 265.3],
  ["CCOC(=O)CN1CCC2(CC1)OCCN2S(=O)(=O)c1ccc(C(C)=O)cc1 [Compound C0099M]", "mu opiate receptor (MOR) (Rattus norvegicus, UniProt P33535)", "%", 195.7],
  ["C[C@@H](NC(=O)[C@@H](N)Cc1ccc(O)cc1)C(=O)NCC(=O)N(C)[C@@H](Cc1ccccc1)C(=O)NCCO [DAMGO, reference compound]", "mu opiate receptor (MOR) (Rattus norvegicus, UniProt P33535)", "%", 266.1]
]}

(Q) Hello, I am looking for reported MOR agonist activity, [35S]GTPγS binding to Gαo with mu opiate receptor (MOR) (Rattus norvegicus, UniProt P33535) for CC(=O)c1ccc(S(=O)(=O)N2CCC3(CC2)NC(=O)CO3)cc1 [Compound C0087M] . Could you help?
(A) 329.6
